Target: hCA I (Homo sapiens, UniProt P00915)
Construct: recombinant, obtained in-house; cytosolic isoform
Sequence (P00915 2-261): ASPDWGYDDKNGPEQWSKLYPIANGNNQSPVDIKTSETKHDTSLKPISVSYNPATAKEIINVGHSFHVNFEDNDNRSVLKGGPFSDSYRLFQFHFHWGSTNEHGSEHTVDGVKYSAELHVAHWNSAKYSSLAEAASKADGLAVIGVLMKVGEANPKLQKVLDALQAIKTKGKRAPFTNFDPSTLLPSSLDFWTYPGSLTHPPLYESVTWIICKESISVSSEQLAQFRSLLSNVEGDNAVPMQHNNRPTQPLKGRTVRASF
Assay: stopped-flow CO2 hydrase assay
pKi: −log10 of the molar value.
REPORTED_METRIC: pKi

> print(dat)
                                    compound                      target.or.system  value.observed
 1          CC(=O)Nc1nc2ccc(S(N)(=O)=O)cc2s1  hCA I (Homo sapiens, UniProt P00915)            6.44
 2      CC(=O)Nc1nc2c(Br)cc(S(N)(=O)=O)cc2s1  hCA I (Homo sapiens, UniProt P00915)            5.63
 3  NS(=O)(=O)c1ccc2nc(NC(=O)c3ccccc3C(=O)O)sc2c1  hCA I (Homo sapiens, UniProt P00915)            7.01
 4            Nc1nc2c(Br)c(S(N)(=O)=O)ccc2s1  hCA I (Homo sapiens, UniProt P00915)            6.15
 5  NC(=S)Nc1ccc(S(N)(=O)=O)cc1 [compound 1, 4-Thioureido-benzenesulfonamide]  hCA I (Homo sapiens, UniProt P00915)            6.33
 6             Nc1nc2c(I)cc(S(N)(=O)=O)cc2s1  hCA I (Homo sapiens, UniProt P00915)            6.22
 7          CC(=O)Nc1nc2cc(S(N)(=O)=O)ccc2s1  hCA I (Homo sapiens, UniProt P00915)            6.47
 8  Nc1nc2cc(S(N)(=O)=O)ccc2s1 [compound 4, 2-Aminobenzo[d]thiazole-5-sulfonamide]  hCA I (Homo sapiens, UniProt P00915)            6.10
 9             Nc1nc2c(I)c(S(N)(=O)=O)ccc2s1  hCA I (Homo sapiens, UniProt P00915)            6.32
10  Nc1nc2ccc(S(N)(=O)=O)cc2s1 [compound 2, 2-Aminobenzo[d]thiazole-6-sulfonamide]  hCA I (Homo sapiens, UniProt P00915)            7.08

(1) NC(=S)Nc1cccc(S(N)(=O)=O)c1 [compound 3, 3-Thioureidobenzenesulfonamide]
(2) Nc1nc2c(Br)cc(S(N)(=O)=O)cc2s1
Request: Between the entries labeled 1 and 2 , whose measured pKi is lower? Response format: the label of the selected entry.
Response: 1

* * *

Biological target: hCA II (Homo sapiens, UniProt P00918)
Construct: recombinant, obtained in-house; cytosolic isoform
Assay: stopped-flow CO2 hydrase assay
pKi: −log10 of the molar value.
REPORTED_METRIC: pKi

Worked cases, pKi given:
> print(dat)
                                   compound                       target.or.system  reported.metric  value.observed
1  Nc1nc2c(Br)c(S(N)(=O)=O)ccc2s1 [compound 6]  hCA II (Homo sapiens, UniProt P00918)              pKi            8.11
2  NC(=S)Nc1ccc(S(N)(=O)=O)cc1 [compound 1, 4-Thioureido-benzenesulfonamide]  hCA II (Homo sapiens, UniProt P00918)              pKi            7.15
3  Nc1nc2cc(S(N)(=O)=O)ccc2s1 [compound 4, 2-Aminobenzo[d]thiazole-5-sulfonamide]  hCA II (Homo sapiens, UniProt P00918)              pKi            6.43
4  NC(=S)Nc1cccc(S(N)(=O)=O)c1 [compound 3, 3-Thioureidobenzenesulfonamide]  hCA II (Homo sapiens, UniProt P00918)              pKi            6.83
5  CC(=O)Nc1nc2cc(S(N)(=O)=O)ccc2s1 [compound 11]  hCA II (Homo sapiens, UniProt P00918)              pKi            7.38
6  Nc1nc2ccc(S(N)(=O)=O)cc2s1 [compound 2, 2-Aminobenzo[d]thiazole-6-sulfonamide]  hCA II (Homo sapiens, UniProt P00918)              pKi            7.47
7  Nc1nc2c(Br)cc(S(N)(=O)=O)cc2s1 [compound 5]  hCA II (Homo sapiens, UniProt P00918)              pKi            8.06
8  CC(=O)Nc1nc2ccc(S(N)(=O)=O)cc2s1 [compound 9]  hCA II (Homo sapiens, UniProt P00918)              pKi            7.68

(A) Nc1nc2c(I)cc(S(N)(=O)=O)cc2s1 [compound 7]
(B) CC(=O)Nc1nc2c(Br)cc(S(N)(=O)=O)cc2s1 [compound 10]
(C) Nc1nc2c(I)c(S(N)(=O)=O)ccc2s1 [compound 8]
Request: Task for the reader: rank each entry by its pKi, from the minimum upward. Put the labels in the order asked and list them.
Response: B, C, A
(B: 6.68, C: 7.29, A: 7.82)

* * *

Target: hCA VII (Homo sapiens, UniProt P43166)
Construct: gene CA7; recombinant, obtained in-house; cytosolic isoform
Sequence (P43166 whole entry, canonical isoform): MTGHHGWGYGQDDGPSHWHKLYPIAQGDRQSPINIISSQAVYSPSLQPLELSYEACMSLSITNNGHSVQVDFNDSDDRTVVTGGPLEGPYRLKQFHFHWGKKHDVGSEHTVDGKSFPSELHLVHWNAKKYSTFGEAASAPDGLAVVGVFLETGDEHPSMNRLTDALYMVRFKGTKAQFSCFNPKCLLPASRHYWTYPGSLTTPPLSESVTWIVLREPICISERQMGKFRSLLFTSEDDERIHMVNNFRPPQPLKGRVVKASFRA
Assay: stopped-flow CO2 hydrase assay
Format: biochemical
Source text: stopped-flow CO2 hydrase assay on hCA VII
REPORTED_METRIC: Ki (nM)

> print(dat)
                        compound                        target.or.system  reported.metric  value.observed
1  Nc1nc2c(I)cc(S(N)(=O)=O)cc2s1  hCA VII (Homo sapiens, UniProt P43166)               Ki            92.3

(A) Nc1nc2ccc(S(N)(=O)=O)cc2s1 [compound 2, 2-Aminobenzo[d]thiazole-6-sulfonamide]
(B) NS(=O)(=O)c1ccc2nc(NC(=O)c3ccccc3C(=O)O)sc2c1
(C) Nc1nc2c(Br)cc(S(N)(=O)=O)cc2s1
(D) Nc1nc2c(Br)c(S(N)(=O)=O)ccc2s1
Request: Highest Ki first, then in falling order down to the smallest. Rank the items, then write their labels in that order.
Response: A, B, C, D
(A: 84.2 nM, B: 46.5 nM, C: 31.1 nM, D: 0.8 nM)

* * *

Biological target: hCA IX (Homo sapiens, UniProt Q16790)
Construct: recombinant, obtained in-house; transmembrane isoform
Assay: stopped-flow CO2 hydrase assay
REPORTED_METRIC: Ki (nM)

(A) Nc1nc2c(I)cc(S(N)(=O)=O)cc2s1
(B) Nc1nc2c(Br)cc(S(N)(=O)=O)cc2s1
(C) Nc1nc2c(I)c(S(N)(=O)=O)ccc2s1
Request: Hey, quick one: sort these by Ki, largest value first please. Please express your ranking as an ordered list of the labels.
Response: A, C, B

* * *

Target: hCA VII (Homo sapiens, UniProt P43166)
Construct: recombinant, obtained in-house; cytosolic isoform
Assay: stopped-flow CO2 hydrase assay
pKi: −log10 of the molar value.
REPORTED_METRIC: pKi

Below are worked cases with known answers.
> print(dat)
                                   compound  reported.metric  value.observed
1          CC(=O)Nc1nc2cc(S(N)(=O)=O)ccc2s1              pKi            7.09
2  NC(=S)Nc1cccc(S(N)(=O)=O)c1 [compound 3, 3-Thioureidobenzenesulfonamide]              pKi            7.12
3          CC(=O)Nc1nc2ccc(S(N)(=O)=O)cc2s1              pKi            7.26
4  NC(=S)Nc1ccc(S(N)(=O)=O)cc1 [compound 1, 4-Thioureido-benzenesulfonamide]              pKi            7.12
5  Nc1nc2cc(S(N)(=O)=O)ccc2s1 [compound 4, 2-Aminobenzo[d]thiazole-5-sulfonamide]              pKi            7.25

(A) CC(=O)Nc1nc2c(Br)cc(S(N)(=O)=O)cc2s1
(B) Nc1nc2c(I)c(S(N)(=O)=O)ccc2s1
Request: I'm curious, which of these has a smaller pKi number: A or B ? Write down the label attached to your selection.
Response: A

FYI, the data here is from paper PMC6010138.
